- MEASURED TARGET: PKMYT1 (Homo sapiens)
- Construct: PKMYT1 (93 kD, full length, N-terminal GST tag from Signal Chem); GST (N); purchased Signal Chem
- Sequence (Q99640 whole entry): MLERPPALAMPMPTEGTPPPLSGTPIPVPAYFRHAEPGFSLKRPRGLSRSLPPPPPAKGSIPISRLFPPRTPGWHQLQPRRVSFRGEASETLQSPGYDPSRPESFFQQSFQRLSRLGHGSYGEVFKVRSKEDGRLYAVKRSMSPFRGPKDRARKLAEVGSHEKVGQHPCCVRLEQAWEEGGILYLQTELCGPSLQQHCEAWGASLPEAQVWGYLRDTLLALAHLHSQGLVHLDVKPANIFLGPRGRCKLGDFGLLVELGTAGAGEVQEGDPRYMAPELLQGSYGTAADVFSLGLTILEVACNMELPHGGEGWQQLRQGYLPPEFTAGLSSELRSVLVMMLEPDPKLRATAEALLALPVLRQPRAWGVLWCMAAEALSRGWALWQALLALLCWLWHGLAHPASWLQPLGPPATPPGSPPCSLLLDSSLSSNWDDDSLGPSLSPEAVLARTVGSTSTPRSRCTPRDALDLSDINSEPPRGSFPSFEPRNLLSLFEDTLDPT
- ASSAY INFO: ADP-Glo PKMYT1 ATP-depletion assay
- PROTOCOL CONDITIONS: 50 nM PKMYT1, 13.3 nM CDK1, read-out: Biochemical IC50
- Experimental: Biochemical IC50 values were determined via ADP-Glo™ assay. Cellular IC50 values were determined via AlphaLISA assay. ADP-Glo™ PKMYT1 ATP-depletion assay. The activity of PKMYT1 is measured using a luciferase-luciferin based ATP detection reaction to quantify ATP depletion resulting from kinase-catalyzed phosphoryl transfer to CDK1 or autophosphorylation of PKMYT1. The ADP generated as a byproduct of the reaction is converted to ATP and used to drive a luciferase reaction. […]
EXPERIMENTAL READOUT: IC50

compound="Cc1cnc2c(-c3c(C)ccc(O)c3C)c(N)c(C(N)=O)cc2c1 (atropisomer, axis not shown)" experimental_value="< 50 nM"
compound="Cc1ccc2nc(C(N)=O)c(N)c(-c3cccc(O)c3C)c2c1 [Compound 55]" experimental_value="50 to 500 nM"
compound=Cc1c(O)cccc1-c1c(N)c(C(N)=O)nc2nccc(O)c12 experimental_value="≥ 5000 nM"
compound="Cc1ccc(O)c(C)c1-c1c(N)c(C(N)=O)nc2nccnc12 (single isomer, unassigned) [Compound 127]" experimental_value="< 50 nM"
compound=COc1cncc(-c2c(N)c(C(N)=O)nc3cccnc23)c1C experimental_value="50 to 500 nM"

Exercise: Which measured IC50 value corresponds to COc1ccc2nc(C(N)=O)c(N)c(-c3cc(O)ncc3C)c2n1 ?
Key: ≥ 5000 nM

Exercise: Which measured IC50 value corresponds to Cc1ccc(O)c(C)c1-c1c(N)c(C(N)=O)nc2ccc(C(F)(F)F)cc12 (single isomer, unassigned) ?
Key: ≥ 5000 nM

Exercise: Which measured IC50 value corresponds to Cc1c(O)cccc1-c1c(N)c(C(N)=O)nc2cccnc12 (single isomer, unassigned) [Compound 5] ?
Key: 500 to 1000 nM

Exercise: Which measured IC50 value corresponds to Cc1c(O)cccc1-c1c(N)c(C(N)=O)nc2ccccc12 ?
Key: 50 to 500 nM

Exercise: Which measured IC50 value corresponds to Cc1nc2cc(C(N)=O)c(N)c(-c3cccc(O)c3C)c2nc1C [Compound 91] ?
Key: 50 to 500 nM

Exercise: Which measured IC50 value corresponds to Cc1c(O)cccc1-c1c(N)c(C(N)=O)nc2nccnc12 (atropisomer, axis not shown) ?
Key: 500 to 1000 nM

Exercise: Which measured IC50 value corresponds to Cc1c(O)cccc1-c1c(N)c(C(N)=O)cc2ncc(C(F)(F)F)nc12 (single isomer, unassigned) ?
Key: 1000 to 5000 nM

Exercise: Which measured IC50 value corresponds to NC(=O)c1nc2cccnc2c(-c2cncc(Cl)c2Cl)c1N ?
Key: < 50 nM

Exercise: Which measured IC50 value corresponds to CC1=C(c2c(N)c(C(N)=O)nc3cccnc23)CCCC1=O ?
Key: ≥ 5000 nM

Exercise: Which measured IC50 value corresponds to Cc1ccc(O)c(C)c1-c1c(N)c(C(N)=O)nc2ccccc12 (atropisomer, axis not shown; (M)) [Compound 44] ?
Key: 50 to 500 nM

Exercise: Which measured IC50 value corresponds to Cc1ccc(O)c(C)c1-c1c(N)c(C#N)cc2nccnc12 (atropisomer, axis not shown) ?
Key: 1000 to 5000 nM
